# targetOrTestSystem: human CLDN6 fused to GFP, expressed on engineered HEK293T cells (human) (UniProt P56747)
# procedureText: FACS, 293T clone with human CLDN6, 1.5 ug Ab
valueType: FACS signal

1) AB1-5 (antibody, V domains shown) VH: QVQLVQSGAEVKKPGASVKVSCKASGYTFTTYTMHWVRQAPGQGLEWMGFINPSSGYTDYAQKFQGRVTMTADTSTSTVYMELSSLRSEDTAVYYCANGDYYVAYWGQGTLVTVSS VL: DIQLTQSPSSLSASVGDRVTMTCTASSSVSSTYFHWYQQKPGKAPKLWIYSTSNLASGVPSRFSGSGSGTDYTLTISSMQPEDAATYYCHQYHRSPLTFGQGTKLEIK; 213000
2) AB1-11 (antibody, V domains shown) VH: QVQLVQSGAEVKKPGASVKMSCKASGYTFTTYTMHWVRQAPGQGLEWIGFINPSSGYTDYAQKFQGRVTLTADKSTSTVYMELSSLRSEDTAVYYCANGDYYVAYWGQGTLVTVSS VL: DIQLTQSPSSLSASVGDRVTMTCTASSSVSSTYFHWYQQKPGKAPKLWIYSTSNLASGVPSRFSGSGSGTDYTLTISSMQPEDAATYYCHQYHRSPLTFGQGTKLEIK; 113000
